Test system: CP256
procedure.summary: qHTS profiling for inhibitors of Plasmodium falciparum proliferation (AID 504749); also: nearly all actives have a fitted effect of over 60% in size
condition.notes: P. falciparum in erythrocytes, SYBR Green DNA, 72 h; series mostly up to 28.7 µM
Records with an inconclusive call do not appear. Activity calls are given as the source filed them. Calls follow the shape of the dose curve; as a rule, active = well fitted inhibition curve with a large enough effect; inconclusive = small, poorly fitted or top-dose-only effect; inactive = flat fitted curve, though single readings scatter.
Hi there, use one of these labels in your reply, thanks! active, inactive

c1ccc2sc(SNC3CCCCC3)nc2c1 | inactive
c1ccc2cc(CC3=NCCN3)ccc2c1 | inactive
O=S(=O)(O)c1cc(O)ccc1O | inactive
[N-]=[N+]=CC(=O)OCC(N)C(=O)O (configuration not stated) | inactive
CCCC(C)(COC(N)=O)COC(=O)NC1CC1 (configuration not stated) | inactive

Exercise: Entry O=P(O)(O)C(Cl)(Cl)P(=O)(O)O : call = ?
Solution: inactive

Exercise: What call does the record list for CCNC(C)Cc1cccc(C(F)(F)F)c1 (configuration not stated) ?
Solution: inactive

Exercise: How was COC1=CC=C2[C@H]3Cc4ccc(OC)c5c4[C@@]2(CCN3C)[C@H]1O5 classified in this test?
Solution: inactive

Exercise: Can you look up the reported call for O=[N+]([O-])c1ccc(F)c([N+](=O)[O-])c1 for me?
Solution: inactive

Exercise: Write down the call the test reported for this molecule. Item: C=CCN1CC[C@]23c4c5ccc(O)c4O[C@H]2[C@@H](O)C=C[C@H]3[C@H]1C5
Solution: inactive
